tested on: HepG2 cells; test: Cytotoxicity, XTT assay with HepG2 cells; details: read-out: IC50, HepG2 cells; mammalian cell toxicity
MEASUREMENT LABEL: IC50 (µM)

>>> recorded_value("Nc1nc(-c2ccc(NC(=O)Nc3cccc(-c4c[nH]c(N)n4)c3F)cc2F)c[nH]1")
431

* * *

Listed next: entries and their corresponding Clarithromycin (CLR) MIC.
test system: A. baumannii strain 5075 (AB5075); test: Clarithromycin potentiation against AB5075 (CLR MIC in presence of adjuvant); assay type: cell-based, Acinetobacter baumannii; conditions: adjuvant at 30 μM, AB5075
MEASUREMENT LABEL: Clarithromycin (CLR) MIC (µg/mL)

>>> recorded_value("Nc1nc(-c2ccc(NC(=O)Nc3ccc(F)c(-c4c[nH]c(N)n4)c3)cc2F)c[nH]1 [Compound 9h]")
0.5
>>> recorded_value("Nc1nc(-c2ccc(NC(=O)Nc3ccc(-c4c[nH]c(N)n4)c(F)c3)cc2)c[nH]1 [Compound 9m]")
0.0625
>>> recorded_value("Nc1nc(-c2ccc(NC(=O)Nc3cccc(-c4c[nH]c(N)n4)c3)cc2)c[nH]1 [Compound 4]")
0.125
>>> recorded_value("Nc1nc(-c2ccc(F)c(NC(=O)Nc3cc(-c4c[nH]c(N)n4)ccc3F)c2)c[nH]1 [Compound 9e]")
32
>>> recorded_value("Nc1nc(-c2cccc(NC(=O)Nc3cccc(-c4c[nH]c(N)n4)c3F)c2F)c[nH]1 [Compound 9f]")
0.25
>>> recorded_value("Nc1nc(-c2ccc(NC(=O)Nc3ccc(-c4c[nH]c(N)n4)c(F)c3)cc2F)c[nH]1 [Compound 9a]")
0.03125
>>> recorded_value("Nc1nc(-c2cc(F)cc(NC(=O)Nc3ccc(-c4c[nH]c(N)n4)c(F)c3)c2)c[nH]1 [Compound 9j]")
0.0625
>>> recorded_value("Nc1nc(-c2ccc(F)c(NC(=O)Nc3ccc(-c4c[nH]c(N)n4)c(F)c3)c2)c[nH]1 [Compound 9i]")
8
>>> recorded_value("Nc1nc(-c2ccc(NC(=O)Nc3ccc(-c4c[nH]c(N)n4)c(C(F)(F)F)c3)cc2C(F)(F)F)c[nH]1 [Compound 9c]")
2
>>> recorded_value("Nc1nc(-c2ccc(NC(=O)Nc3ccc(-c4c[nH]c(N)n4)c(Cl)c3)cc2Cl)c[nH]1 [Compound 14b]")
32
>>> recorded_value("COc1cc(-c2c[nH]c(N)n2)ccc1NC(=O)Nc1ccc(-c2c[nH]c(N)n2)cc1OC [Compound 9d]")
8
>>> recorded_value("Nc1nc(-c2cccc(NC(=O)Nc3cc(F)cc(-c4c[nH]c(N)n4)c3)c2)c[nH]1 [Compound 9l]")
0.0625
>>> recorded_value("Nc1nc(-c2cccc(NC(=O)Nc3cccc(-c4c[nH]c(N)n4)c3)c2)c[nH]1 [Compound 5]")
0.03125
>>> recorded_value("Nc1nc(-c2cc(NC(=O)Nc3ccc(F)c(-c4c[nH]c(N)n4)c3)ccc2F)c[nH]1 [Compound 9b]")
0.125

* * *

test system: A. baumannii strain 5075 (AB5075); experiment: Clarithromycin potentiation against AB5075 (CLR MIC in presence of adjuvant); assay type: cell-based, Acinetobacter baumannii; conditions: adjuvant at 20 μM, AB5075
MEASUREMENT LABEL: Fold Reduction of CLR MIC (fold)

>>> recorded_value("Nc1nc(-c2cc(F)cc(NC(=O)Nc3ccc(-c4c[nH]c(N)n4)c(F)c3)c2)c[nH]1")
256
>>> recorded_value("Nc1nc(-c2ccc(NC(=O)Nc3ccc(-c4c[nH]c(N)n4)c(F)c3)cc2)c[nH]1")
64
>>> recorded_value("Nc1nc(-c2cc(NC(=O)Nc3ccc(F)c(-c4c[nH]c(N)n4)c3)ccc2F)c[nH]1")
128
>>> recorded_value("Nc1nc(-c2ccc(NC(=O)Nc3ccc(F)c(-c4c[nH]c(N)n4)c3)cc2F)c[nH]1")
8

Just for reference, patent US20260138957A1 is where these values come from.
